system: PfAP2-G AP2 domain (GST-tagged); experiment: gcPBM binding intensity (ln(normalized median fluorescence intensity)); higher = stronger DNA binding
Whole data set: some 25,000 sequences, median “ln(normalized median fluorescence intensity)” near 10, cut for the highest 2% near 12. This excerpt belongs to a sample that is enriched for the highest values.
Reported gcPBM binding intensity (ln) values for the following sequences.

Example entries begin here.
sequenceChain | subjectOfTest | gcPBM binding intensity (ln)
CTTCCTATATTTTACTGTACTTTTTTTTTTTTTTTT [XGTACX_site4016] | PfAP2-G AP2 domain (GST-tagged) | 11.7
TATAAATATATATTTTGTACTTAATATAAATTTATA [XGTACX_site7996] | PfAP2-G AP2 domain (GST-tagged) | 11
GGATAAGAAAAGAAGTGTACATATATATATATATAT [XGTACX_site8290] | PfAP2-G AP2 domain (GST-tagged) | 11.2

For the record GCTTATTTTAATTCTTGTACTTATTTATATACAAAT [XGTACX_site2099] , what value of gcPBM binding intensity (ln) is listed for PfAP2-G AP2 domain (GST-tagged)?
11.2

Requested read-out gcPBM binding intensity (ln), target or system PfAP2-G AP2 domain (GST-tagged), entry ACTATTATTAAAAATTGTACTTTCTATAAATTTTTT [XGTACX_site7825]
11.1

Provide value of gcPBM binding intensity (ln) for this record tested with PfAP2-G AP2 domain (GST-tagged): ATTTAAATACAAAATTGTACTTTTCTATATTTAACA [XGTACX_site6146]
11.3

Field: gcPBM binding intensity (ln) (PfAP2-G AP2 domain (GST-tagged)). Entry: TGGTCTTTTAAACAAAAATATAAATTTTTAAATATG [CACACA_negctrl_site392]
9.94

Kindly state the measured gcPBM binding intensity (ln) obtained for ATATTTTTGTTCAGGAGTACAGTTCAAGATGAAAAT [XGTACX_site4178] with PfAP2-G AP2 domain (GST-tagged).
11.6
